The compounds listed here are annotated with their Drug uptake.
Test system: Putamen
method.summary: Drug uptake in anesthetized cynomolgus monkey brain putamen after 35 mins postinjection
Type: ADME, organism-based, Macaca fascicularis
Set-up: unit not given here
reported.conditions: in vivo
Enter the number alone.

O=C(OCC[18F])C1C2CCC(CC1c1ccc(/C=C\I)cc1)N2 (stereo not given)    3.57
O=C(OCCC[18F])C1C2CCC(CC1c1cccc(/C=C\I)c1)N2 (stereo not given)    4.99
O=C(OCCC[18F])C1C2CCC(CC1c1cccc(/C=C\Br)c1)N2 (stereo not given)    6.11

Given O=C(OCC[18F])C1C2CCC(CC1c1cccc(/C=C\Br)c1)N2 (stereo not given) , state its recorded Drug uptake. 4.8

Next: O=C(OCC[18F])C1C2CCC(CC1c1cccc(/C=C\I)c1)N2 (stereo not given) 4.28

----------
# Drug uptake per entry
Test system: Caudate
method.summary: Drug uptake in anesthetized cynomolgus monkey brain caudate after 18.5 mins postinjection
Type: ADME, organism-based, Macaca fascicularis, Caudate nucleus
reported.conditions: in vivo

What value of Drug uptake has been recorded for this entry: O=C(OCCC[18F])C1C2CCC(CC1c1cccc(/C=C\Br)c1)N2 (stereo not given) 4.53

----------
Test system: Thalamus
method.summary: Drug uptake in anesthetized cynomolgus monkey brain thalamus after 9.5 mins postinjection
Assay type: ADME, organism-based, Macaca fascicularis
Design: unit not given here
reported.conditions: in vivo
# label = condition met if Drug uptake < 3 else condition not met

Lab note: confirm whether the reported Drug uptake for this compound is below 3, equality not counting. compound: O=C(OCC[18F])C1C2CCC(CC1c1cccc(/C=C\Br)c1)N2 (stereo not given) condition met

----------
method.summary: Ratio of drug uptake in occipital lobe to cerebellum in anesthetized cynomolgus monkey after 115 mins postinjection
Format: ADME, organism-based, Macaca fascicularis
reported.conditions: in vivo
List of Ratio values.
Please give only the number in your answer, with no unit.

Worked cases, Ratio given:
O=C(OCC[18F])C1C2CCC(CC1c1cccc(/C=C\Br)c1)N2 (stereo not given)    1.1
O=C(OCCC[18F])C1C2CCC(CC1c1cccc(/C=C\I)c1)N2 (stereo not given)    1

What value of measured Ratio is listed for O=C(OCC[18F])C1C2CCC(CC1c1ccc(/C=C\I)cc1)N2 (stereo not given) ? 1.3

Queued: O=C(OCC[18F])C1C2CCC(CC1c1cccc(/C=C\I)c1)N2 (stereo not given) 0.9

One more compound: O=C(OCCC[18F])C1C2CCC(CC1c1cccc(/C=C\Br)c1)N2 (stereo not given) 1.1

----------
System: Midbrain
method.summary: Drug uptake in anesthetized cynomolgus monkey brain midbrain after 155 mins postinjection
Type: ADME, organism-based, Macaca fascicularis
reported.conditions: in vivo
readout.label: Drug uptake
# answer = number (no unit)

O=C(OCCC[18F])C1C2CCC(CC1c1cccc(/C=C\Br)c1)N2 (stereo not given)    5.23
O=C(OCC[18F])C1C2CCC(CC1c1cccc(/C=C\I)c1)N2 (stereo not given)    3.66
O=C(OCC[18F])C1C2CCC(CC1c1ccc(/C=C\I)cc1)N2 (stereo not given)    4.65

Look at this compound and give its reported Drug uptake. O=C(OCCC[18F])C1C2CCC(CC1c1cccc(/C=C\I)c1)N2 (stereo not given) 4.35

Thanks! And O=C(OCC[18F])C1C2CCC(CC1c1cccc(/C=C\Br)c1)N2 (stereo not given) ? 4.54
